OUTCOME_MEASURE: melting point

>  <MOLECULE>
Nc1cccc(NNC=O)c1

>  <melting point>
108 to 113 °C

$$$$
>  <MOLECULE>
Cc1cc(-c2c(-c3ccc(S(C)(=O)=O)cc3)cnn(-c3ccc(F)c(Cl)c3)c2=O)ccc1F

>  <melting point>
207 to 208 °C

$$$$
>  <MOLECULE>
O=C(c1cc(Br)ccc1[N+](=O)[O-])C(Br)C(Br)c1cccc(Br)c1 (stereo not given)

>  <melting point>
153 to 155 °C

$$$$

Short answer for C#CCN1C(=O)COc2cc(-c3ncc(C(F)(F)F)c(C)c3Cl)c(F)cc21 : melting point was 156 to 157 °C

Short answer for CN1C(=O)C(c2cccc(-c3cccnc3F)c2)(c2cnn(CCF)c2)N=C1N (stereo not given) : melting point was 195 to 197 °C

Short answer for O=C(O)[C@@H]1C[C@@H](C(=O)O)N(C(=O)OCc2ccccc2)C1 : melting point was 98 to 100 °C

Short answer for CC(C)(C)c1noc(-c2cnc(Cl)c(Cl)c2)n1 : melting point was 98 to 101 °C

Short answer for COc1c(OCCCC(=O)O)ccc2c1N=C(C=C(O)c1cccnc1)N1CCN=C21 : melting point was 257 to 258 °C

Short answer for NC(=O)N1CCN(c2nn(-c3ccccc3)c3ccccc23)CC1 : melting point was 151 to 153 °C

Short answer for CCC=C1Cc2c(c(C)c(C)c3oc(C(=O)O)cc23)C1=O : melting point was 301 °C

Where do these numbers come from? They come from a melting point compilation (Tetko et al.; mined from patent text by program, amines drawn as free bases though some values may be those of a salt).
